Experiment: Oral bioavailability in CD-1 mouse at 50 mg/kg and measured up to 24 hrs by LC/MS-MS analysis
Format: ADME, organism-based
Conditions: in vivo
VALUE_KIND: F (%)

Cc1ccc(C#Cc2cccc(-c3nn(-c4nc(C(=O)O)cs4)c(CCC4CC4)c3Cc3ccc(S(N)(=O)=O)c(F)c3)c2)s1 :: 42
Cc1ccc(C#Cc2cccc(-c3nn(-c4nc(C(=O)O)cs4)c(CC4CC4)c3Cc3ccc(S(N)(=O)=O)c(F)c3)c2)s1 :: 64

I. Cc1cnc(C#Cc2cc(-c3nn(-c4nc(C(=O)O)cs4)c(CC4CC4)c3Cc3ccc(S(N)(=O)=O)c(F)c3)ccc2F)s1
II. Cc1ccc(C#Cc2cccc(-c3nn(-c4nc(C(=O)O)cs4)c(CC4CC4)c3Cc3ccc(S(N)(=O)=O)c(F)c3)c2)o1
// which entry has the larger F value, I or II ? Respond with the label that goes with your answer.
II
